# Target system: hGLP-1R (Homo sapiens, UniProt P43220)
# Sequence (P43220 24-463): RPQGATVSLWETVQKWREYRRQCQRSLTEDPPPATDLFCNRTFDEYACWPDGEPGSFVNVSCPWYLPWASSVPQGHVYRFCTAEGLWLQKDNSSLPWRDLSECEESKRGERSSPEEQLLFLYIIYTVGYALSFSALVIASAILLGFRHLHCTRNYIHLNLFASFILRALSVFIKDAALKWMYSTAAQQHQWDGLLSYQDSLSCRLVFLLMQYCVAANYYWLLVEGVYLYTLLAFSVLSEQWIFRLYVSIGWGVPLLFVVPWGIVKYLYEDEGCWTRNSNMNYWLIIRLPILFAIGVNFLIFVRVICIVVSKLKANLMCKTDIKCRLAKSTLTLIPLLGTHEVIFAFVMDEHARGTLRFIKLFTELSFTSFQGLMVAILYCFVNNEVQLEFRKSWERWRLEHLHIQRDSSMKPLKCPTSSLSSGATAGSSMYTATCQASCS
# Measurement protocol: cell-based or functional assay
Measured attribute: Relative cAMP EC50 (pM)
Unit pM implied. Number only.

[Q] Identify the reported Relative cAMP EC50 for the following entry. YXQGTFTSDXSQXLDXKAQXAFIEXLIEXGPSSGEPPPSGSEE (non-natural residues, C18 diacid-(γGlu)2 acyl on K, C-terminal amide; synthetic construct; SITE 2: note = 2-Aminoisobutyric Acid; SITE 10: note = 3-(4-Pyridyl)-L-alanine; SITE 13: note = alpha-methyl-leucine; SITE 16: note = L-ornithine; SITE 17: note = Lysine is chemically modified through conjugation of the epsilon-amino group of the Lysine side chain with (gamma-Gl)) [Example 1093]
[A] 954

[Q] Identify the reported Relative cAMP EC50 for the following entry. YXQGTXTSDXXIXLDXKAQXEFIEXLIEGGPPSXXPPPXGGGE (Lys acylated AEEA-γGlu-C18 diacid; non-natural residues; C-amide; synthetic construct; SITE 2: note = 2-Aminoisobutyric Acid; SITE 6: note = alpha-methyl-2-fluoro-L-phenylalanine; SITE 10: note = 3-(4-Pyridyl)-L-alanine; SITE 11: note = alpha-methyl-L-serine; SITE 13: note = alpha-methyl-leucine; SITE 16: note = L-ornithine; SITE 17: note = Lysine is chemically mo) [Example 1197]
[A] 407

[Q] Identify the reported Relative cAMP EC50 for the following entry. YXQGTFTSDFSXXLDKKAQXAFIEYLLEGGESSGAPPPSGS (synthetic construct; SITE 2: note = 2-Aminoisobutyric Acid; SITE 12: note = L-ornithine; SITE 13: note = alpha-methyl-leucine; SITE 17: note = Lysine is chemically modified through conjugation of the epsilon-amino group of the Lysine side chain with (2-[2-(2-Amino-ethoxy)-ethoxy]-acetyl)-(gamma-Glu)) [Example 145]
[A] 4260
